- test.description: Pharmacokinetics of meptazinol or meptazinol PABA carbamate, monkeys (Example 29)
- Type: in vivo, monkey
- details: monkey, plasma, po, 10 mg meptazinol free base equivalents/kg, meptazinol in plasma, oral meptazinol 10 mg free base equivalents/kg, mean, read-out: t½ (converted)

compound: CCC1(c2cccc(O)c2)CCCCN(C)C1 (stereo not shown)
half-life: 48 min

----------
- test.description: Pharmacokinetics of levorphanol or levorphanol PABA carbamate, dogs (Example 46)
- Type: in vivo, Beagle dogs
- details: female, beagle, dog, plasma, po, 5 mg levorphanol free base equivalents/kg, levorphanol in plasma after oral levorphanol, 5 mg free base equivalents/kg, female beagle dog; Mean; read-out: Cmax

structure.string: CN1CC[C@]23CCCC[C@H]2[C@H]1Cc1ccc(O)cc13
unit.descriptor: ng/mL
Cmax: 3.8

----------
- test.description: Pharmacokinetics of meptazinol from PABA analogue prodrugs, dogs (Example 26)
- Format: in vivo
- details: dog, plasma, po, 1 mg/kg; read-out: AUC* (mean ngh/mL), AUC0-t

compound: CCC1(c2cccc(O)c2)CCCCN(C)C1 (stereo not shown)
AUC(0-t) / ng·h/mL: 5.4

----------
- test.description: Pharmacokinetics of meptazinol or meptazinol PABA carbamate, rats (Example 30)
- details: rat, plasma, po, 1 mg/kg, AUC*, meptazinol in plasma; oral meptazinol 1 mg free base equivalents/kg; rats; calculated based on half-life from previous iv study; mean
quantity: AUC (ng·h/mL)

compound: CCC1(c2cccc(O)c2)CCCCN(C)C1 (stereo not shown) [meptazinol]
result.number: 3.4

----------
- test.description: Pharmacokinetics of levorphanol or levorphanol PABA carbamate, dogs (Example 46)
- Assay type: in vivo, Beagle dogs
- details: female, beagle, dog, plasma, po, 5 mg levorphanol free base equivalents/kg, levorphanol in plasma after oral levorphanol, 5 mg free base equivalents/kg, female beagle dog; Mean; read-out: Tmax
quantity: Tmax (min)

structure.string: CN1CC[C@]23CCCC[C@H]2[C@H]1Cc1ccc(O)cc13
quantity: Tmax
unit.descriptor: min
result.number: 36

----------
- test.description: Pharmacokinetics of racemic tapentadol or tapentadol PABA carbamate, monkeys (Example 39)
- details: male, cynomolgus monkey, plasma, po, 1 mg free base equivalents/kg
quantity: AUC (ng·h/mL)

structure.string: CC[C@@H](c1cccc(O)c1)[C@@H](C)CN(C)C
result.number: 5.4

----------
- test.description: Pharmacokinetics of levorphanol or levorphanol PABA carbamate, monkeys (Example 45)
- Format: in vivo
- details: male, cynomolgus monkey, plasma, po, 5 mg levorphanol free base equivalents/kg, levorphanol in plasma after oral levorphanol, 5 mg free base equivalent/kg, Mean, read-out: AUC
quantity: AUC

molecule: CN1CC[C@]23CCCC[C@H]2[C@H]1Cc1ccc(O)cc13 [levorphanol]
quantity: AUC
result: 28 ng·h/mL

----------
- test.description: Pharmacokinetics of meptazinol or meptazinol PABA carbamate, monkeys (Example 29)
- Format: in vivo, monkey
- details: monkey, plasma, iv, 1 mg/kg, meptazinol in plasma, iv meptazinol 1 mg free base equivalents/kg, mean, read-out: C0

compound: CCC1(c2cccc(O)c2)CCCCN(C)C1 (stereo not shown) [meptazinol]
unit.descriptor: ng/mL
C0: 273

----------
- test.description: Pharmacokinetics of nalbuphine or nalbuphine PABA carbamate, rats (Example 42)
- Format: in vivo, Wistar rats
- details: male, Wistar, rat, plasma, po, 3 mg nalbuphine free base equivalents/kg, nalbuphine in plasma after oral nalbuphine, 3 mg free base equivalents/kg, single animal, read-out: t½ (converted)

structure.string: Oc1ccc2c3c1O[C@H]1[C@@H](O)CC[C@@]4(O)[C@@H](C2)N(CC2CCC2)CC[C@]314
half-life (h): 1.2

----------
- test.description: in vivo
- details: male, rat, plasma, po, 10 mg naloxone free base equivalents/kg, Tmax, naloxone in plasma after oral naloxone, 10 mg free base equivalents/kg, male rats; Mean

compound: C=CCN1CC[C@]23c4c5ccc(O)c4O[C@H]2C(=O)CC[C@@]3(O)[C@H]1C5 [naloxone]
Tmax (min): 21

----------
- test.description: Pharmacokinetics of meptazinol or meptazinol PABA carbamate, monkeys (Example 29)
- Type: in vivo, monkey
- details: monkey, plasma, iv, 1 mg/kg, meptazinol in plasma, iv meptazinol 1 mg free base equivalents/kg, mean, read-out: t½ (converted)

compound: CCC1(c2cccc(O)c2)CCCCN(C)C1 (stereo not shown) [meptazinol]
half-life: 50.4 min

----------
- test.description: Pharmacokinetics of meptazinol or meptazinol PABA carbamate, monkeys (Example 29)
- Format: in vivo, monkey
- details: monkey, plasma, iv, 1 mg/kg, iv meptazinol 1 mg free base equivalents/kg, individual animals
quantity: clearance (mL/min/kg)

compound: CCC1(c2cccc(O)c2)CCCCN(C)C1 (stereo not shown)
quantity: clearance
result.number: 73.7

----------
- test.description: Pharmacokinetics of levorphanol or levorphanol PABA carbamate, dogs (Example 46)
- Type: in vivo, Beagle dogs
- details: female, beagle, dog, plasma, po, 5 mg levorphanol free base equivalents/kg, levorphanol in plasma after oral levorphanol, 5 mg free base equivalents/kg, female beagle dog; single animal; read-out: Tmax
quantity: Tmax (h)

structure.string: CN1CC[C@]23CCCC[C@H]2[C@H]1Cc1ccc(O)cc13
quantity: Tmax
unit.descriptor: h
result.number: 1

----------
- test.description: Pharmacokinetics of racemic tapentadol or tapentadol PABA carbamate, monkeys (Example 39)
- details: cynomolgus monkey, plasma, po, 3 mg/kg

structure.string: CC[C@@H](c1cccc(O)c1)[C@@H](C)CN(C)C
half-life [min]: 72

----------
- test.description: Pharmacokinetics of meptazinol from PABA analogue prodrugs, monkeys (Example 26)
- Format: in vivo
- details: monkey, plasma, po, 2 mg/kg
quantity: Cmax (ng/mL)

molecule: CCC1(c2cccc(O)c2)CCCCN(C)C1 (stereo not shown)
quantity: Cmax
result.number: 1.3

----------
- test.description: Pharmacokinetics of dextrorphan or dextrorphan PABA carbamate, monkeys (Example 47)
- Type: in vivo, cynomolgus monkeys
- details: male, cynomolgus monkey, plasma, po, 5 mg dextrorphan free base equivalents/kg; read-out: AUC

structure.string: CN1CC[C@@]23CCCC[C@@H]2[C@@H]1Cc1ccc(O)cc13
AUC [ng·h/mL]: 20

----------
- test.description: Pharmacokinetics of nalbuphine or nalbuphine PABA carbamate, rats (Example 42)
- Assay type: in vivo, Wistar rats
- details: male, Wistar, rat, plasma, po, 3 mg nalbuphine free base equivalents/kg, nalbuphine in plasma after oral nalbuphine, 3 mg free base equivalents/kg, Mean, read-out: AUC

structure.string: Oc1ccc2c3c1O[C@H]1[C@@H](O)CC[C@@]4(O)[C@@H](C2)N(CC2CCC2)CC[C@]314
unit.descriptor: ng·h/mL
AUC: 1.2

----------
- test.description: Pharmacokinetics of levorphanol or levorphanol PABA carbamate, monkeys (Example 45)
- Assay type: in vivo
- details: male, cynomolgus monkey, plasma, po, 5 mg levorphanol free base equivalents/kg, levorphanol in plasma after oral levorphanol, 5 mg free base equivalent/kg, single animal
quantity: Tmax (h)

structure.string: CN1CC[C@]23CCCC[C@H]2[C@H]1Cc1ccc(O)cc13
quantity: Tmax
result.number: 2

----------
- test.description: in vivo
- details: dog, read-out: Dog Oral Bioavailability (%)
Where a name gives a salt, the structure may show the parent alone.

molecule: CCC1(c2cccc(O)c2)CCCCN(C)C1 (stereo not shown) [Meptazinol HCl (oral), Meptazinol HCl]
unit.descriptor: %
bioavailability: 6

----------
- test.description: Pharmacokinetics of nalbuphine or nalbuphine PABA carbamate, rats (Example 42)
- Assay type: in vivo, Wistar rats
- details: male, Wistar, rat, plasma, po, 3 mg nalbuphine free base equivalents/kg, nalbuphine in plasma after oral nalbuphine, 3 mg free base equivalents/kg, single animal, read-out: Cmax

structure.string: Oc1ccc2c3c1O[C@H]1[C@@H](O)CC[C@@]4(O)[C@@H](C2)N(CC2CCC2)CC[C@]314
Cmax / ng/mL: 1.4

----------
- test.description: Pharmacokinetics of dextrorphan or dextrorphan PABA carbamate, dogs (Example 48)
- Format: in vivo, beagle dogs
- details: female, beagle, dog, plasma, po, 5 mg dextrorphan free base equivalents/kg, dextrorphan in plasma after oral dextrorphan, 5 mg free base equivalents/kg, female dogs; single animal; read-out: Tmax

structure.string: CN1CC[C@@]23CCCC[C@@H]2[C@@H]1Cc1ccc(O)cc13
Tmax (min): 30

----------
- test.description: Pharmacokinetics of meptazinol or meptazinol PABA carbamate, rats (Example 30)
- details: rat, plasma, po, 1 mg/kg, t½*, meptazinol in plasma; oral meptazinol 1 mg free base equivalents/kg; rats; mean
quantity: half-life (h)

compound: CCC1(c2cccc(O)c2)CCCCN(C)C1 (stereo not shown) [meptazinol]
quantity: half-life
result.number: 1.3

----------
- test.description: Pharmacokinetics of meptazinol or meptazinol PABA carbamate, dogs (Example 27)
- Format: in vivo, dog
- details: dog, plasma, iv, 1 mg/kg, meptazinol in plasma, iv meptazinol 1 mg free base equivalents/kg, individual animals, read-out: AUC

compound: CCC1(c2cccc(O)c2)CCCCN(C)C1 (stereo not shown) [meptazinol]
AUC: 247 ng·h/mL

----------
- test.description: Pharmacokinetics of butorphanol or butorphanol PABA carbamate, dogs (Example 44)
- Format: in vivo, beagle dogs
- details: male, beagle, dog, plasma, po, 0.5 mg/kg, butorphanol in plasma after oral butorphanol, 0.5 mg butorphanol free base/kg, Average, read-out: Cmax

structure.string: Oc1ccc2c(c1)[C@@]13CCCC[C@@]1(O)[C@@H](C2)N(CC1CCC1)CC3
unit.descriptor: ng/mL
Cmax: 0.73
